# Test system: COLO 205
# Measurement notes: NCI tumour cell line growth inhibition, 48 h
Calls of active or inactive are those of the source. Cut-off read from the data, not from the text of the source: active = GI50 up to about 1.1 µM and inactive = higher.
Give measured GI50 for each item. Keep answers brief.

IN: Please look up its GI50: `C=C1[C@H](OCC(C)C)[C@@H](O)[C@@H](OC(=O)c2cccnc2)C(C)(C)/C=C/[C@H](C)[C@H](OC(C)=O)[C@@]2(O)C[C@@](C)(OC(C)=O)[C@H](OC(=O)c3ccccc3)[C@@H]2[C@H]1OC(C)=O`
OUT: 0.0713 µM (active)

IN: Try `O=C1C=CC(=O)c2c(NCC3CC3)ccc(NCC3CC3)c21` next.
OUT: 19.7 µM (inactive)

IN: Would you kindly repeat that for `COC(=O)c1ccc(C(=O)OC)c2nc3cc(Cl)ccc3nc12` ?
OUT: > 100 µM (inactive)

IN: Now consider `CN(C)c1ccc(/C=C2\C=Cc3ccccc32)cc1` .
OUT: 58.6 µM (inactive)

IN: Then this molecule: `Cc1nc2c(n1CC(C)(C)C)C(=O)c1ccccc1C2=O`
OUT: > 100 µM (inactive)

IN: Same question for Cc1ccc(OCC2OC(n3cnc4nc(Nc5ccc(Cl)c(Cl)c5)nc(Cl)c43)CC2Oc2ccc(C)cc2)cc1 (stereo unspecified) please.
OUT: > 100 µM (inactive)

IN: One more molecule: `Cn1cc2ccccc2c1-c1nc(N)nc(F)n1`
OUT: > 100 µM (inactive)

IN: Same read-out for COc1cc(C[S+]([O-])c2ccc(O)cc2)cc(OC)c1OC (stereo unspecified) ?
OUT: > 100 µM (inactive)

IN: Okay, and `O=[N+]([O-])c1ccc(N/N=C/CC(O)(C(F)(F)F)C(F)(F)F)c([N+](=O)[O-])c1` ?
OUT: 3.67 µM (inactive)

IN: // same read-out, input: `CC1=C(O)C(=O)c2ccccc2C1=O`
OUT: > 100 µM (inactive)

IN: Let us now turn to `CCOC(=O)c1cc(OC(=O)CC)c2c(OC)ccc(OC)c2c1`
OUT: > 100 µM (inactive)

IN: Please give the result for `O=[N+]([O-])c1c(F)c(F)c2c(c1F)N(CCCCCl)c1ccccc1S2` too.
OUT: 14.4 µM (inactive)

IN: Would you kindly repeat that for `O=C(Nc1nc2ccccc2s1)c1cc([N+](=O)[O-])ccc1Cl` ?
OUT: 19.6 µM (inactive)

IN: Check `Cc1nc2ccccc2c(=O)n1NC(=O)c1ccccn1` too.
OUT: > 100 µM (inactive)

IN: Can you check `O=C1c2c(Br)sc(Br)c2C(=O)C1(O)O` next?
OUT: 23.4 µM (inactive)

IN: Please do the same for `CCOc1cc2c(cc1O)/C(=N\OC)C[C@@H]1[C@@H]2CC[C@]2(C)[C@@H](O)CC[C@@H]12` as well.
OUT: 16.3 µM (inactive)

IN: What do you have for CCOC(=O)C(Cc1ccc(OC(=O)c2ccc(OC)cc2)cc1)NC(=O)C(F)(F)F (stereo unspecified) ?
OUT: > 100 µM (inactive)

IN: Follow-up entry: `COc1ccc(-c2cc3[nH]nc(N)c3c(=O)o2)cc1`
OUT: > 100 µM (inactive)

IN: // repeat for `CC12c3c4cccc3Oc3cc(N)cc(c31)Oc1cc(N)cc(c12)O4` and report
OUT: 3.29 µM (inactive)

IN: Note, next up: `COc1cccc(-c2c(-c3ccccc3)[nH]c(C)c2C(=O)ONC(=O)c2ccccc2)c1`
OUT: 13.7 µM (inactive)

IN: Also need `COC(=O)C(Cc1cc(OC)c(OC)c(OC)c1)C(=O)OC` , thanks.
OUT: > 320 µM (inactive)
